Data origin: patent US10428140B2

Assayed System: T1, human EphA2 (Homo sapiens, UniProt P29317)
T1 construct: a protein of the extracellular region of each human Eph receptor fused with the SEAP protein and the His tag; made in house; host or cells: Expi293F cells (culture supernatant)
T1 sequence (P29317 24-537 limits assumed): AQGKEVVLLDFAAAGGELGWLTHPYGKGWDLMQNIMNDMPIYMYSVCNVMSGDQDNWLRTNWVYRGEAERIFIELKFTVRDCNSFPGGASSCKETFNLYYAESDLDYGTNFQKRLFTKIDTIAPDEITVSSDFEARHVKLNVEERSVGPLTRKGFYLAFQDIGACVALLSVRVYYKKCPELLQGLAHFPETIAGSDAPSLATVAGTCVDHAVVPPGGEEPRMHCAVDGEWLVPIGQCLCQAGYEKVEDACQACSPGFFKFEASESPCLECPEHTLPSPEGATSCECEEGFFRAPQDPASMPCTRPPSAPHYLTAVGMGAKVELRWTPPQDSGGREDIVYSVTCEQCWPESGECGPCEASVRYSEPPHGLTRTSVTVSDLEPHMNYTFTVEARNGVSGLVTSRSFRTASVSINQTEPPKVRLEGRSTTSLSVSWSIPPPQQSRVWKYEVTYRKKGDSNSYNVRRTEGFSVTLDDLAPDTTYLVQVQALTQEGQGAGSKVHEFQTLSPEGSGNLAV
Protocol: Selectivity ELISA of humanized antibodies for human Eph receptor
Assay type: binding
Experimental Conditions: coated protein 1 nM
Test Readout: hEphA2-SEAP-: absorbance at 450 nm, percentage with respect to hEphA4-SEAP-His as 100% (%)

Molecule	Measured
160 (antibody, V domains shown, synthetic humanized antibody heavy chain variable region sequence; synthetic humanized antibody light chain variable region sequence) VH: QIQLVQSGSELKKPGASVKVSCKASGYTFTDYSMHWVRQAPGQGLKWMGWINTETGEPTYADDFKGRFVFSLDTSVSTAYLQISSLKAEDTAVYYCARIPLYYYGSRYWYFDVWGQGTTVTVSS VL: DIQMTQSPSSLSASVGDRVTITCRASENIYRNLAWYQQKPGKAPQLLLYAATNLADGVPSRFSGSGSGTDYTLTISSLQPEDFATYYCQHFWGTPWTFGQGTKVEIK	6.1
86 (antibody, V domains shown, constant regions without entry; synthetic humanized antibody light chain variable region sequence; synthetic humanized antibody heavy chain variable region sequence) VL: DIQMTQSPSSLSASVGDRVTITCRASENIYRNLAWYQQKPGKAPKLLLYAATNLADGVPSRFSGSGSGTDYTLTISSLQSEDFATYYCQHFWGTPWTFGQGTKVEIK VH: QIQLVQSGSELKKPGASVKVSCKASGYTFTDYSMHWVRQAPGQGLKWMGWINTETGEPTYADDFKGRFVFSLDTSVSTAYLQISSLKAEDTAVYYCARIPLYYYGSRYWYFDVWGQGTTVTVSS	5.7
